Each item that follows carries a reported inhibition of aggregation.
Assay: reduction of polyQ htt aggregates in cells – imaging, exon1htt(103Q)mCFP cells, high-content imaging, primary screen (AID 483);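 note: compound exposure lasted 3 days before fixation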
Details: exon1htt(103Q)mCFP cell line, aggregate imaging, at 2 µM; stronger effect = higher value
EXPERIMENTAL_READOUT: inhibition of aggregation (%)

COMPOUND	MEASURED_VALUE
CCOC(=O)CCCn1nc(C)n2c(cc3sccc32)c1=O	-1.6
CC(=O)C1=C(O)C(=O)N(Cc2ccco2)C1c1ccc2c(c1)OCO2 (stereo unspecified)	1.6
Cc1cccc(C(=O)N2CCN(C(=O)c3cccc(C)c3)C(C)C2)c1 (stereo unspecified)	3.6
CCCn1c(=N)n(CCOc2ccc(OC)cc2)c2ccccc21	5.9
CCN1C(=O)OC2(CCCCC2)C1(C)O (stereo unspecified)	-3.6
COc1ccc(N2C(=O)CC(NC3CC3)C2=O)cc1 (stereo unspecified)	0.9

----------
Assay: reduction of polyQ htt aggregates in cells – imaging, exon1htt(103Q)mCFP cells, high-content imaging, primary screen (AID 483);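 note: compound exposure lasted 3 days before fixation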;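 for nuclei count: percent of the per-plate median nuclei count of sample wells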
Details: exon1htt(103Q)mCFP cell line, aggregate imaging, at 2 µM; measured here: cell count, toxicity

COMPOUND	nuclei count (%)
C=CCOc1ccc(/C(O)=C2\C(=O)C(=O)N(CCOC)C2c2cccnc2)cc1 (centres undefined)	105
CCC(Sc1ccc(C(=O)O)cc1)C(=O)O (centres undefined)	110
CCOC(=O)c1nn(-c2sc(C(=O)OC)c(C)c2C(=O)OC)cc1O	94.5
NC(=O)C1(N2CCCCC2)CCN(C2CC(=O)N(Cc3cccs3)C2=O)CC1 (centres undefined)	82.9
CCCn1c(=N)n(CC(=O)c2cccs2)c2ccccc21	87.6
O=C(CCSc1ccccc1)N1CCN(C(=O)c2ccco2)CC1	102
COc1cccc(-c2noc(CCC(=O)NC3CCCCC3)n2)c1	112
O=C(CN1CCN(C(=O)c2ccccc2)CC1)Nc1ncc(Br)cc1Br	95.9
CCN(CCCNC(=O)c1cn(CC)c2ccc(S(=O)(=O)N(C)C)cc2c1=O)c1cccc(C)c1	106
Cc1ccc2nc(SCC(=O)NCc3ccco3)c(C#N)cc2c1	100
C1CNCCNCCCNCCNC1	100
Cn1c(=O)cc(SCC(=O)N2CCOCC2)c2ccc(Cl)cc21	89.4
CCOC(=O)CNC(=O)CSc1ncnc2c1cnn2-c1ccccc1	113
CC(=O)N[C@@H](CS)C(=O)O	104
O=C(CCn1nc(-c2ccccc2)ccc1=O)N1CCCC1	95.9
S=c1nc(C2CC2)[nH]c2ccccc12	106
CC1C(O)=C(c2nc3ccccc3[nH]2)C(=N)N1c1ccccc1 (centres undefined)	103
Cc1ccccc1NC(=O)N1C2CCCC1CC(NC(=O)C1CC1)C2 (centres undefined)	107
CCOC(=O)c1[nH]nc(-c2c(O)cc(C)cc2O)c1-c1csc(C)n1	87.5
CCSc1nc(-c2ccc(OC)cc2)ccc1C#N	72.9
c1cnn(-c2cc(N3CCOCC3)ncn2)c1	85.2
N#Cc1c(N)n(CCNC(=O)c2cccs2)c2nc3ccccc3nc12	99.9
Cn1cnnc1SCC(=O)NCc1cccc(C(F)(F)F)c1	116
CCCOc1cc(C)c(S(=O)(=O)N2CCN(C)CC2)cc1C	100

----------
Each item that follows carries a reported cell count.
Assay: inhibitors of TNFa-induced NFkB p65 translocation, primary screen, imaging, HUVEC, MLSMR starter and 10KST1 sets (AID 438);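 note: compound added about 3h40 before a 20 min TNFalpha stimulation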
Details: HUVEC TNFa-induced p65 nuclear translocation; measured here: nuclei count (cytotoxicity indicator), at 2.08 µM
EXPERIMENTAL_READOUT: cell count

MOLECULE	MEASURED_VALUE
COC(=O)c1c(C(=O)OC)n(CCCN)c2ccc(C)cc12	434
Cc1ccnc(NS(=O)(=O)c2ccc(N=CC3=C(O)CC(C)(C)CC3=O)cc2)n1	395
c1cnn(-c2cc(N3CCOCC3)ncn2)c1	301
Cc1[nH]c(=O)[nH]c(=O)c1S(=O)(=O)Nc1ccc(Oc2ccccc2)cc1	638
O=C(CN1CCN(C(=O)c2ccccc2)CC1)Nc1ncc(Br)cc1Br	622
Cc1nn(-c2ccccc2)c(Cl)c1C1C(C#N)=C(N)OC2=C1C(=O)CC(C)(C)C2 (stereo not given)	378
Cc1ccc(C)c(S(=O)(=O)NCc2ccc(C(=O)N3CCN(C)CC3)cc2)c1	328
COc1cc(C(=O)N2CCCC(c3nc(-c4cccs4)no3)C2)cc(OC)c1OC (stereo not given)	709
CCn1c(=O)cc(SCC(=O)N2CCN(C3CCCCC3)CC2)c2ccccc21	417
Cn1c(Cc2cccs2)nnc1SCC(=O)N1CCc2ccccc21	369

----------
Target: Muscarinic acetylcholine receptor M4 (Homo sapiens)
Test: M4-linked GIRK flux change, two-sided – cell-based, HEK293 M4/GIRK, thallium flux, BTC-AM, M4 allosteric agonist project, primary screen (AID 625);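 note: thallium influx through GIRK channels coupled to M4 in HEK293 cells with BTC-AM dye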
Conditions: at 10 µM, actives lie on both sides
Sorting guide: entries reporting fluorescence slope beneath 0.005 go in the criterion met pile, the rest go in the criterion not met pile.

MOLECULE	GROUP
O=C(OCc1nnc(-c2ccccc2)o1)c1ccc(S(=O)(=O)NCc2ccco2)cc1	criterion not met
CCCCN(C)Cc1c(C)[nH]c2c(Cl)cccc2c1=O	criterion not met
COC(=O)C1(C)NC(c2ccco2)C2C(=O)N(c3ccc(C)cc3)C(=O)C21 (stereo unspecified)	criterion not met
CCS(=O)(=O)N1CCC(C(=O)NC2CCCCC2)CC1	criterion met
Cn1cnnc1Sc1nc2c(c(=O)n(C)c(=O)n2C)n1C	criterion not met
O=c1c2c3c(sc2nc2sc(C4CC4)nn12)CCCC3	criterion not met
COc1cccc(-c2noc(CCC(=O)NC3CCCCC3)n2)c1	criterion not met
COCCOC(=O)C1=C(C)N=c2s/c(=C\c3cccs3)c(=O)n2C1c1cccs1 (stereo unspecified)	criterion met
COC(=O)Cc1c(C)nc2nc(-c3ccco3)[nH]n2c1=O	criterion not met
COCC(=O)N(Cc1nc2ccccc2c(=O)[nH]1)Cc1cccs1	criterion not met
CC(C)CCOc1ccc(Cl)cc1CN1CCOCC1	criterion met
CN1CCN(C2=Nc3cc(Cl)ccc3Nc3ccccc32)CC1	criterion met
CC(=O)C1=C(O)C(=O)N(Cc2ccco2)C1c1ccc2c(c1)OCO2 (stereo unspecified)	criterion met
Cc1ccc2nc(CSc3nnc(-c4ccco4)n3-c3ccccc3)cc(=O)n2c1	criterion not met
Cc1nc2nc(SCC(=O)NCc3ccco3)nn2c(C)c1Cc1ccccc1	criterion not met
COc1ccccc1OCCn1c(=O)sc2ccccc21	criterion not met
Cc1ccc(-c2nc(-c3cccnc3)no2)c(C)c1	criterion not met
COc1ccccc1-c1nnc2sc(-c3ccc(N(C)C)cc3)nn12	criterion not met
CCc1cccc2c(=O)c(C(=O)NCCN3CCOCC3)c[nH]c12	criterion met
CCSc1nnc(NC(=O)c2cc(C)oc2C)s1	criterion met
CCOc1ccc(-n2c(=O)cc(N3CCN(c4ccccc4)CC3)[nH]c2=O)cc1	criterion not met
CCOC(=O)c1ccc(Oc2nc(NC)nc(OC)n2)cc1	criterion not met
CC(C)=CCSc1nnc(CCNC(=O)OC(C)(C)C)o1	criterion not met
Cc1nc(=S)n(-c2ccccc2)[nH]1	criterion not met
O=C(Cn1nnc2c(cnn2-c2ccc(F)cc2)c1=O)c1ccccc1F	criterion not met
COc1ccc(N2C(=O)CC(NC3CC3)C2=O)cc1 (stereo unspecified)	criterion not met
CCn1c(SCC(=O)Nc2nccs2)nnc1-c1ccncc1	criterion not met
CC1CCN(CCC(=O)Nc2ccc(Br)cc2)CC1	criterion met
CC(=O)N1CCc2cc(S(=O)(=O)NC(CC(C)C)C(=O)N3CCn4c3nc3ccccc34)ccc21 (stereo unspecified)	criterion not met
COc1cccc(-n2nnc3c(=O)n(Cc4cccc(F)c4)cnc32)c1	criterion not met
CCOC(=O)C1CCN(C(=O)Nc2ccc3snnc3c2)CC1	criterion not met
CN1C(=O)CSc2ccc(NC(=O)N3CCN(c4ccccn4)CC3)cc21	criterion not met
COc1ccccc1C1/C(=C(\O)c2c(C)nc3c(C)cccn23)C(=O)C(=O)N1CCCN(C)C (stereo unspecified)	criterion not met
COc1cc(C)nc(Oc2ccc(=O)[nH]n2)n1	criterion not met
COc1ccc(-n2c(SCC(=O)Nc3ccc(C(=O)O)cc3)nnc2-c2cccs2)cc1	criterion not met
O=C1CC(N2CCC(C(=O)N3CCCCC3)CC2)C(=O)N1 (stereo unspecified)	criterion not met
COCCN1C(=O)C(=O)/C(=C(/O)c2cccc(OC)c2)C1c1ccncc1 (stereo unspecified)	criterion not met
CN(CCCC(=O)Nc1ccncc1)S(=O)(=O)c1ccc(Cl)cc1	criterion not met
CCN(CCCNC(=O)c1cn(CC)c2ccc(S(=O)(=O)N(C)C)cc2c1=O)c1cccc(C)c1	criterion not met
Clc1ccc(Cc2nn3c(-c4ccncc4)nnc3s2)cc1	criterion met
Cn1c(=O)c2c(nc(SCc3nn[nH]n3)n2Cc2ccccc2F)n(C)c1=O	criterion not met
CCOC(=O)c1sc(C)c2c(=O)n(CC)nnc12	criterion met

----------
Assay: endothelial E-selectin expression blockers – imaging, HUVEC, immunofluorescence, MLSMR starter and 10KST1 sets, primary screen (AID 487);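 note: signal is fraction of cell area covered by stained E-selectin grains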
Settings: HUVEC TNFalpha-induced E-selectin immunofluorescence imaging, at 2 µM; stronger effect = higher value
Calls of active or inactive are those of the source.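 How the source made its calls: active means visually confirmed hit in the image check and inhibition above 20%; inconclusive means visually confirmed hit but inhibition not above 20%; inactive means no visual hit in the image check.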
Each item that follows carries a reported inhibition.
EXPERIMENTAL_READOUT: inhibition

MOLECULE	EXPERIMENTAL_READOUT	MEASURED_VALUE
Cn1nnnc1SCC(=O)Nc1ccccc1C(=O)NCc1ccccc1	inhibition	-74.8% (inactive)
Cc1ccc(S(=O)(=O)N(C)c2ccc(OCC(=O)OCc3c(C)noc3C)cc2)cc1	inhibition	-15.8% (inactive)
O=C(CN(c1ccccc1)S(=O)(=O)c1ccccc1)N1CCN(Cc2ccc3c(c2)OCO3)CC1	inhibition	-23.4% (inactive)
CN1CCN(C2=Nc3cc(Cl)ccc3Nc3ccccc32)CC1	inhibition	-176% (inactive)
O=c1cc(-c2ccc(Cl)cc2)[nH][nH]1	inhibition	54.7% (inactive)
O=C(Nc1ccccc1N1CCN(C(=O)c2ccc(Cl)cc2)CC1)c1cc2ccccc2o1	inhibition	-108% (inactive)
COc1ccccc1-c1nnc2sc(-c3ccc(N(C)C)cc3)nn12	inhibition	-217% (inactive)
O=C(C1CC1)N(Cc1ccco1)c1nc(-c2ccccc2)cs1	inhibition	-72.7% (inactive)
Nc1nc(CN2CCOCC2)cs1	inhibition	14.6% (inactive)
CCn1nnnc1NCc1cccn1C	inhibition	-41.2% (inactive)
CCOc1ncccc1C(=O)OCC(=O)Nc1ncc(C(F)(F)F)cc1Cl	inhibition	-29% (inactive)
COc1ccc(-c2nc(N)nc(C)c2Oc2ccccc2Br)c(O)c1	inhibition	-64.3% (inactive)
CC1(C)CC(=O)c2cnc(NC(=O)CSc3nc4ccccc4o3)nc2C1	inhibition	-79.9% (inactive)
O=C(CSc1ccc(Cl)cc1)OCc1nnc(-c2ccccc2)o1	inhibition	-46.5% (inactive)
CCOC(=O)C(Oc1ccc(=O)[nH]n1)C(C)=O (stereo not drawn)	inhibition	-70.7% (inactive)
Cn1cccc1C1NC(=O)c2c(sc3c2CCC(C(C)(C)C)C3)N1 (stereo not drawn)	inhibition	-107% (inactive)
O=C(OCc1nnc(-c2ccccc2)o1)C1=COCCO1	inhibition	-58.4% (inactive)
CCCc1nn(CCc2ccccn2)c(N)c1CC	inhibition	-43.2% (inactive)
O=C1CC(C(=O)Nc2ccccc2)C2(CCCC2)O1 (stereo not drawn)	inhibition	-80.4% (inactive)
Cc1ccc(S(=O)(=O)Cc2ccc(C(=O)NCc3ccc4c(c3)OCO4)o2)cc1	inhibition	-16.5% (inactive)
COc1ccccc1C1/C(=C(\O)c2c(C)nc3c(C)cccn23)C(=O)C(=O)N1CCCN(C)C (stereo not drawn)	inhibition	35.1% (inactive)
O=C(Nc1ccccc1)c1ccc(NCC2CCCO2)c(S(=O)(=O)N2CCOCC2)c1 (stereo not drawn)	inhibition	-99.7% (inactive)
CC(C)CCNC(=O)NC(=O)CSc1nnc(-c2ccccc2Br)o1	inhibition	-32.9% (inactive)
